- ASSAY SYSTEM: human CB1 (hCB1) receptor (Homo sapiens, UniProt P21554)
- Construct: expressed in transfected cells; host or cells: CHO-K1
- Sequence (P21554 whole entry): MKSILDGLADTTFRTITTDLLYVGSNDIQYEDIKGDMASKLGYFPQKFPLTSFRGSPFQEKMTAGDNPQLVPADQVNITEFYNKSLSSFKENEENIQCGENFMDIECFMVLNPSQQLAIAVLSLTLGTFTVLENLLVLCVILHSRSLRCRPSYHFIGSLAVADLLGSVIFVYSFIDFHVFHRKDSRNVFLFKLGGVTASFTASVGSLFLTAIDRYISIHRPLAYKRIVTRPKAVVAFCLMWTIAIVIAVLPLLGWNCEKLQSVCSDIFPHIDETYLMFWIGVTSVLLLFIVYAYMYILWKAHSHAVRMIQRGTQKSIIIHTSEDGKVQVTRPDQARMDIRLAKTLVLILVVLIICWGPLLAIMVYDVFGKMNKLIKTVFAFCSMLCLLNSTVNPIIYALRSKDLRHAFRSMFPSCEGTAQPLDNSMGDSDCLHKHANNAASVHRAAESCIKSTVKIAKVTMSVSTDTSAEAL
- MEASUREMENT NOTES: Inhibition of forskolin-activated cAMP production upon activation of hCB1 (HTRF), CHO-K1 cells
- Assay type: cell-based
- CONDITION DETAILS: CB1 pEC50, hCB1-CHO-K1 cells, forskolin-activated cAMP, pEC50=-log(EC50)
Measured EC50, listed per entry for reference.
Give just the number in µM; leave the unit off.

Study these solved cases before continuing.
Quickly give me recorded EC50 for COc1cc(S(=O)(=O)c2ccc3c(c2)nc(C(C)(C)C)n3CC2CCOCC2)c(F)cn1 [Co. No. 72] 1.02

Quickly give me recorded EC50 for CC(C)(C)c1nc2cc(S(=O)(=O)c3ccc(C(N)=O)o3)ccc2n1CC1CCOCC1 [Co. No. 12] 0.468

Quickly give me recorded EC50 for CC(C)(C)c1nc2cc(S(=O)(=O)c3ncccc3C#N)ccc2n1CC1CCOCC1 [Co. No. 104] 0.0871

Quickly give me recorded EC50 for Cc1cc(S(=O)(=O)c2ccc3c(c2)nc(CC(C)(C)C)n3CC2CCOCC2)cc[n+]1[O-] [Co. No. 102] 9.12

Now for another entry.
Quickly give me recorded EC50 for Cc1nccc(S(=O)(=O)c2ccc3c(c2)nc(C(C)(C)C)n3CC2CCOCC2)n1 [Co. No. 107] 1.55

* * *

- ASSAY SYSTEM: human CB2 (hCB2) receptor (Homo sapiens, UniProt P34972)
- Construct: expressed in transfected cells; host or cells: CHO-K1
- Sequence (P34972 whole entry): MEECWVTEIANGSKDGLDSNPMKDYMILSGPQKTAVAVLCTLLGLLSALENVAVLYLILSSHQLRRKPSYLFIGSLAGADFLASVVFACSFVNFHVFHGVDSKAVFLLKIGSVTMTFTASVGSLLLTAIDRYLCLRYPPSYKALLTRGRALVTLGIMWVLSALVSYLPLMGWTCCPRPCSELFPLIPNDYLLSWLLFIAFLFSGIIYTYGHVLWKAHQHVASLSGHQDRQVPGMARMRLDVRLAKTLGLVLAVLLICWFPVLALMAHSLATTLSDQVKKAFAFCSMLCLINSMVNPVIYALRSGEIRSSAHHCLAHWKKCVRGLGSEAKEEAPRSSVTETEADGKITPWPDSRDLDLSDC
- MEASUREMENT NOTES: Inhibition of forskolin-activated cAMP production upon activation of hCB2 (HTRF), CHO-K1 cells
- Format: cell-based
- CONDITION DETAILS: Table C-1; selectivity hCB2 over hCB1
- Experimental: Functional activity of the test compounds was assessed by measuring their potency to inhibit forskolin-activated cAMP production upon activation of the human CB1 (hCB1) or human CB2 (hCB2) receptor through homogenous time resolved fluorescence (HTRF) assays. […]
RECORDED ENDPOINT: ratio CB2 agonism over CB1 agonism
Answer as a number with no unit attached.

Study these solved cases before continuing.
Quickly give me recorded ratio CB2 agonism over CB1 agonism for `CC(C)(C)c1nc2cc(S(=O)(=O)c3ccnc(Cl)c3)ccc2n1CC1CCOCC1` 933

Quickly give me recorded ratio CB2 agonism over CB1 agonism for `CC(C)(C)c1nc2cc(S(=O)(=O)c3ccc(C(=O)O)cn3)ccc2n1CC1CCCCC1` 3758

Quickly give me recorded ratio CB2 agonism over CB1 agonism for `CC(C)(C)c1nc2cc(S(=O)(=O)c3ccn(CC(F)(F)F)c(=O)c3)ccc2n1CC1CCOCC1` 2065

Now for another entry.
Quickly give me recorded ratio CB2 agonism over CB1 agonism for `CN(C)CCCOc1cc(S(=O)(=O)c2ccc3c(c2)nc(C(C)(C)C)n3CC2CCOCC2)ccn1` 617

* * *

Measured ratio CB2 over CB1 agonism, listed per entry for reference.
- ASSAY SYSTEM: human CB2 (hCB2) receptor (Homo sapiens)
- Construct: expressed in transfected cells; host or cells: CHO-K1
- MEASUREMENT NOTES: Inhibition of forskolin-activated cAMP production upon activation of hCB2 (HTRF), CHO-K1 cells
- Format: cell-based
- CONDITION DETAILS: Table C-3; comparison of art compounds A to E with compounds of the invention
Answer as a number with no unit attached.

Quickly give me recorded ratio CB2 over CB1 agonism for `CC(C)(C)c1nc2cc(S(=O)(=O)c3cc(Cl)cc(Cl)n3)ccc2n1CC1CCOCC1` 12883

***
Quickly give me recorded ratio CB2 over CB1 agonism for `CC(C)(C)c1nc2cc(S(=O)(=O)c3ccnc(F)c3)ccc2n1CC1CCOCC1` 495

Quickly give me recorded ratio CB2 over CB1 agonism for `CC(C)(C)c1nc2cc(S(=O)(=O)c3ccnc(OCC(F)(F)F)c3)ccc2n1CC1CCOCC1` 398

Source of measurements: patent US9284303B2
